Hello, the source for this data is patent US20110052562A1, in case you need it.

system: N2a cells; assay: Neurite Length Assay (N2a, cell assay); assay type: cell-based; conditions: Mus musculus, neurite retraction induced by 5 uM LPA
readout-type: IC50 (nM)
State just the number; it will be interpreted in nM.

Give a short answer stating reported IC50 for COc1ccc2c(c1)CC(c1nc3cc(-c4ccncc4)cc(F)c3[nH]1)CO2 (stereo not shown) .
4

* * *

test system: smooth muscle cells; assay: Myosin Light Chain Double Phosphorylation Assay (ppMLC, cell assay); assay type: cell-based; conditions: serum starved smooth muscle cells, compound 1 h, LPA 30 min
readout-type: IC50 (nM)
State just the number; it will be interpreted in nM.

Give a short answer stating reported IC50 for COc1ccc2c(c1)CC(c1nc3cc(-c4ccncc4)cc(F)c3[nH]1)CO2 (stereo not shown) .
6
